test system: Diabrotica balteata; test: Diabrotica balteata (corn root worm) larval test on artificial diet; format: in vivo; conditions: 120 h, application rate 3 ppm, read-out: Control/% Diabrotica balteata Corn rootworm
Listing: pest or weed control at 3 ppm of selected compounds
Measurement kind: pest or weed control at 3 ppm (%)

compound="O=C(CSc1ccc(C2=NOC(c3cc(Cl)cc(Cl)c3)(C(F)(F)F)C2)cc1)NCC(F)(F)F (centres unmarked)" measurement_kind="pest or weed control at 3 ppm" result_value=20
compound="Cc1cc(C2=NOC(c3cc(Cl)cc(Cl)c3)(C(F)(F)F)C2)ccc1SCC(=O)NCC(F)(F)F (centres unmarked)" measurement_kind="pest or weed control at 3 ppm" result_value=100
compound="Cc1cc(C2=NOC(c3cc(Cl)cc(Cl)c3)(C(F)(F)F)C2)ccc1[S+](C)[O-] (centres unmarked)" measurement_kind="pest or weed control at 3 ppm" result_value=0
compound=Cc1cc(C2=NO[C@@](c3cc(Cl)cc(Cl)c3)(C(F)(F)F)C2)ccc1SCC(=O)NCC(F)(F)F measurement_kind="pest or weed control at 3 ppm" result_value=100
compound="Cc1cc(C2=NOC(c3cc(Cl)cc(Cl)c3)(C(F)(F)F)C2)ccc1[S+]([O-])CC(=O)NCC(F)(F)F (centres unmarked)" measurement_kind="pest or weed control at 3 ppm" result_value=75
